Molecular target: CDK2/cyclinE1 complex (Homo sapiens, UniProt P24941)
Assay: In-vitro enzymatic inhibitory activity testing, CDK2 inhibition assay (Caliper EZ Reader II)
Settings: CDK2/cyclinE1 0.5 nM, 180 min at 27° C.
pIC50: −log10 of the molar value.
Please respond with reported pIC50 for every item in the list.

Problem: Quick check: pIC50 of CP(C)(=O)c1cccc2c(-c3nc(NC4CCC5(CCNC5)C4)ncc3C(F)(F)F)c[nH]c12 (single isomer, unassigned) [Compound 98] ?
Solution: 5.30 to 6.70

Problem: Now this one: CC(CO)CNc1ncc(C(F)(F)F)c(-c2c[nH]c3c(P(C)(C)=O)cccc23)n1 (single isomer, unassigned) [Compound 150]
Solution: 5.30 to 6.70

Problem: Now this one: CP(C)(=O)c1cccc2c(-c3nc(N[C@@H](CO)C4CCC4)ncc3C(F)(F)F)c[nH]c12 [Compound 113]
Solution: 4.30 to 5.30

Problem: Now this one: CP(C)(=O)c1cccc2c(-c3nc(NCC(O)C(F)F)ncc3C(F)(F)F)c[nH]c12 (single isomer, unassigned) [Compound 124]
Solution: 4.30 to 5.30

Problem: Now this one: CP(C)(=O)c1cccc2c(-c3nc(NCCO)ncc3C(F)(F)F)c[nH]c12 [Compound 97]
Solution: 5.30 to 6.70

Problem: Now this one: C[C@@H](CO)Nc1ncc(C(F)(F)F)c(-c2c[nH]c3c(P(C)(C)=O)c(C#N)ccc23)n1 [Compound 79]
Solution: 5.30 to 6.70

Problem: Now this one: CN(C)CC1CCCC1Nc1ncc(C(F)(F)F)c(-c2c[nH]c3c(P(C)(C)=O)cccc23)n1 (single isomer, unassigned) [Compound 135]
Solution: 5.30 to 6.70

====

Assay: Caco-2 membrane permeability and efflux rate
Assay type: in vitro ADME
Conditions: human, Caco-2, Caco-2, 5 μM, basal end to top end
measured-property: Papp B→A at 2 h, 5 μM (×10⁻⁶ cm/s)
Answer format: numeric, ×10⁻⁶ cm/s implied, no suffix.

Problem: Quick check: Papp B→A at 2 h, 5 μM of CP(C)(=O)c1cccc2c(-c3nc(NC4(CO)CC(F)C4)ncc3C(F)(F)F)c[nH]c12 (centres unmarked) ?
Solution: 21.9

Problem: Now this one: CP(C)(=O)c1cccc2c(-c3nc(N[C@H]4CCCNC4)ncc3C(F)(F)F)c[nH]c12 [A control compound WO2018013867 (353), reference compound]
Solution: 15.9

Problem: Now this one: `C[C@@H](CO)Nc1ncc(C(F)(F)F)c(-c2c[nH]c3c(P(C)(C)=O)cccc23)n1`
Solution: 23.6

Problem: Now this one: `CP(C)(=O)c1cccc2c(-c3nc(NC4(CO)COC4)ncc3C(F)(F)F)c[nH]c12`
Solution: 25.4

Problem: Now this one: `CP(C)(=O)c1cccc2c(-c3nc(NC[C@H](F)CO)ncc3C(F)(F)F)c[nH]c12`
Solution: 29.5

====

Target: CDK2/cyclinE1 complex (Homo sapiens, UniProt P24941)
Assay: In-vitro enzymatic inhibitory activity testing, CDK2 inhibition assay (Caliper EZ Reader II)
Conditions: CDK2/cyclinE1 0.5 nM, 180 min at 27° C.
Please respond with reported IC50 for every item in the list.

Problem: Quick check: IC50 of CC1(C)COCC(Nc2ncc(C(F)(F)F)c(-c3c[nH]c4c(P(C)(C)=O)cccc34)n2)CN1 (single isomer, unassigned) [Compound 91] ?
Solution: 5 to 50 µM

Problem: Now this one: `CC(C)(CO)Nc1ncc(C(F)(F)F)c(-c2c[nH]c3c(P(C)(C)=O)cccc23)n1`
Solution: 5 to 50 µM

Problem: Now this one: Cc1noc(C)c1-c1ccc2c(-c3nc(NC4CCC5(CCNC5)C4)ncc3C(F)(F)F)c[nH]c2n1 (stereo not drawn)
Solution: 0.2 to 5 µM

Problem: Now this one: CC1(C)COCC(Nc2ncc(C(F)(F)F)c(-c3c[nH]c4c(P(C)(C)=O)c(C#N)ccc34)n2)CN1 (stereo not drawn)
Solution: > 50 µM

Problem: Now this one: FC(F)(F)c1cnc(NC2C3CNCC32)nc1-c1c[nH]c2nc(N3CCOCC3)ccc12 (stereo not drawn)
Solution: 5 to 50 µM

Problem: Now this one: `CC(C)[C@@H](CO)Nc1ncc(C(F)(F)F)c(-c2c[nH]c3c(P(C)(C)=O)cccc23)n1`
Solution: 5 to 50 µM

Problem: Now this one: FC(F)(F)c1cnc(N[C@H]2CCCNC2)nc1-c1c[nH]c2cc(N3CCCC3)ccc12 [Compound 101, reference compound]
Solution: 5 to 50 µM

Problem: Now this one: `CP(C)(=O)c1cccc2c(-c3nc(N[C@@H]4CC[C@H]4O)ncc3C(F)(F)F)c[nH]c12`
Solution: 0.2 to 5 µM

Problem: Now this one: FC(F)(F)c1cnc(NC2CCC3(CCNC3)C2)nc1-c1c[nH]c2nc(N3CCOCC3)ccc12 (stereo not drawn)
Solution: 5 to 50 µM

Problem: Now this one: CP(C)(=O)c1cccc2c(-c3nc(NCC(O)C(F)(F)F)ncc3C(F)(F)F)c[nH]c12 (stereo not drawn) [Compound 145]
Solution: > 50 µM

Problem: Now this one: `CP(C)(=O)c1cccc2c(-c3nc(NCC4(O)CCC4)ncc3C(F)(F)F)c[nH]c12`
Solution: 5 to 50 µM

Problem: Now this one: `CP(C)(=O)c1cccc2c(-c3nc(N[C@H]4CC[C@H](O)C4)ncc3C(F)(F)F)c[nH]c12`
Solution: 0.2 to 5 µM

Problem: Now this one: CP(C)(=O)c1cccc2c(-c3nc(NC4(CO)CCOC4)ncc3C(F)(F)F)c[nH]c12 (single isomer, unassigned) [Compound 118]
Solution: 5 to 50 µM

Problem: Now this one: CC1(C)COCC(Nc2ncc(C(F)(F)F)c(-c3c[nH]c4nc(C#N)ccc34)n2)CN1 (stereo not drawn) [Compound 62]
Solution: > 50 µM

Problem: Now this one: `C[C@@H](CO)Nc1ncc(C(N)=O)c(-c2c[nH]c3c(P(C)(C)=O)cccc23)n1`
Solution: > 50 µM

====

Assay: Caco-2 membrane permeability and efflux rate
Format: in vitro ADME
Details: human, Caco-2, Caco-2, 5 μM, top end to basal end
Strictly below 3 ×10⁻⁶ cm/s in Papp A→B at 2 h, 5 μM: Fulfilled. Otherwise: Not fulfilled.

Problem: Could you please tell me whether Papp A→B at 2 h, 5 μM recorded for `C[C@@H](CO)Nc1ncc(C(F)(F)F)c(-c2c[nH]c3c(P(C)(C)=O)cccc23)n1` is less than 3 ×10⁻⁶ cm/s?
Solution: Not fulfilled

Problem: Now this one: CP(C)(=O)c1cccc2c(-c3nc(N[C@H]4CCCNC4)ncc3C(F)(F)F)c[nH]c12 [A control compound WO2018013867 (353), reference compound]
Solution: Fulfilled

Problem: Now this one: CP(C)(=O)c1cccc2c(-c3nc(NCC4CC4CO)ncc3C(F)(F)F)c[nH]c12 (single isomer, unassigned)
Solution: Fulfilled

Problem: Now this one: CC1(C)COCC(Nc2ncc(C(F)(F)F)c(-c3c[nH]c4c(P(C)(C)=O)cccc34)n2)CN1 (single isomer, unassigned)
Solution: Fulfilled

Problem: Now this one: `C[C@@H](CO)Nc1ncc(C#N)c(-c2c[nH]c3c(P(C)(C)=O)cccc23)n1`
Solution: Fulfilled

Problem: Now this one: `CP(C)(=O)c1cccc2c(-c3nc(NC[C@H]4C[C@](C)(O)C4)ncc3C(F)(F)F)c[nH]c12`
Solution: Not fulfilled

Problem: Now this one: `CP(C)(=O)c1cccc2c(-c3nc(NCCO)ncc3C(F)(F)F)c[nH]c12`
Solution: Fulfilled

Problem: Now this one: `CP(C)(=O)c1cccc2c(-c3nc(NC4(CO)CC(F)(F)C4)ncc3C(F)(F)F)c[nH]c12`
Solution: Fulfilled

Problem: Now this one: `CP(C)(=O)c1cccc2c(-c3nc(NC45CC(O)(C4)C5)ncc3C(F)(F)F)c[nH]c12`
Solution: Fulfilled

Problem: Now this one: CC(CO)CNc1ncc(C(F)(F)F)c(-c2c[nH]c3c(P(C)(C)=O)cccc23)n1 (single isomer, unassigned)
Solution: Not fulfilled

Problem: Now this one: `C[C@@H](CO)Nc1ncc(C(F)(F)F)c(-c2c[nH]c3c(P(C)(C)=O)c(C#N)ccc23)n1`
Solution: Not fulfilled

Problem: Now this one: `C[C@@H](CO)Nc1ncc(C(F)(F)F)c(-c2c[nH]c3c(P(C)(C)=O)c(F)ccc23)n1`
Solution: Not fulfilled

Problem: Now this one: `CC(C)(CO)Nc1ncc(C(F)(F)F)c(-c2c[nH]c3c(P(C)(C)=O)cccc23)n1`
Solution: Not fulfilled

Problem: Now this one: `CP(C)(=O)c1cccc2c(-c3nc(N[C@H]4CCC[C@@H]4O)ncc3C(F)(F)F)c[nH]c12`
Solution: Not fulfilled

Problem: Now this one: CP(C)(=O)c1cccc2c(-c3nc(NCC4CC(O)C4)ncc3C(F)(F)F)c[nH]c12 (centres unmarked)
Solution: Not fulfilled

Problem: Now this one: `CP(C)(=O)c1cccc2c(-c3nc(N[C@@H]4CC[C@H]4O)ncc3C(F)(F)F)c[nH]c12`
Solution: Not fulfilled

Problem: Now this one: `CP(C)(=O)c1cccc2c(-c3nc(N[C@H]4COC[C@@H]4O)ncc3C(F)(F)F)c[nH]c12`
Solution: Fulfilled

Problem: Now this one: `CN(C)[C@H]1CC[C@H](Nc2ncc(C(F)(F)F)c(-c3c[nH]c4c(P(C)(C)=O)cccc34)n2)C1`
Solution: Fulfilled

Problem: Now this one: `CP(C)(=O)c1cccc2c(-c3nc(NCCCO)ncc3C(F)(F)F)c[nH]c12`
Solution: Fulfilled

Problem: Now this one: `CP(C)(=O)c1cccc2c(-c3nc(NC[C@H](F)CO)ncc3C(F)(F)F)c[nH]c12`
Solution: Fulfilled

Problem: Now this one: `C[C@@H](CO)Nc1ncc(Cl)c(-c2c[nH]c3c(P(C)(C)=O)cccc23)n1`
Solution: Not fulfilled

Problem: Now this one: `CP(C)(=O)c1cccc2c(-c3nc(NC4(CO)COC4)ncc3C(F)(F)F)c[nH]c12`
Solution: Fulfilled

Problem: Now this one: `CP(C)(=O)c1cccc2c(-c3nc(N[C@H]4CC[C@@H]4O)ncc3C(F)(F)F)c[nH]c12`
Solution: Not fulfilled

Problem: Now this one: `CP(C)(=O)c1cccc2c(-c3nc(N[C@H]4CC[C@H](O)C4)ncc3C(F)(F)F)c[nH]c12`
Solution: Fulfilled

Problem: Now this one: CC(O)[C@H](C)Nc1ncc(C(F)(F)F)c(-c2c[nH]c3c(P(C)(C)=O)cccc23)n1 (single isomer, unassigned)
Solution: Not fulfilled

Problem: Now this one: `CP(C)(=O)c1cccc2c(-c3nc(N[C@@H]4CCC[C@H]4O)ncc3C(F)(F)F)c[nH]c12`
Solution: Not fulfilled

Problem: Now this one: `CP(C)(=O)c1cccc2c(-c3nc(NC4(CO)CC4)ncc3C(F)(F)F)c[nH]c12`
Solution: Fulfilled

Problem: Now this one: `CP(C)(=O)c1cccc2c(-c3nc(NC4(CO)CCC4)ncc3C(F)(F)F)c[nH]c12`
Solution: Not fulfilled

Sourced from patent US20240124504A1
